Answer each item with its documented inhibition at 10 µM.
biological target: UniProt:P08684; experiment: Inhibition of CYP3A4 (unknown origin) at 10 uM; assay type: ADME
Sequence (P08684 whole entry): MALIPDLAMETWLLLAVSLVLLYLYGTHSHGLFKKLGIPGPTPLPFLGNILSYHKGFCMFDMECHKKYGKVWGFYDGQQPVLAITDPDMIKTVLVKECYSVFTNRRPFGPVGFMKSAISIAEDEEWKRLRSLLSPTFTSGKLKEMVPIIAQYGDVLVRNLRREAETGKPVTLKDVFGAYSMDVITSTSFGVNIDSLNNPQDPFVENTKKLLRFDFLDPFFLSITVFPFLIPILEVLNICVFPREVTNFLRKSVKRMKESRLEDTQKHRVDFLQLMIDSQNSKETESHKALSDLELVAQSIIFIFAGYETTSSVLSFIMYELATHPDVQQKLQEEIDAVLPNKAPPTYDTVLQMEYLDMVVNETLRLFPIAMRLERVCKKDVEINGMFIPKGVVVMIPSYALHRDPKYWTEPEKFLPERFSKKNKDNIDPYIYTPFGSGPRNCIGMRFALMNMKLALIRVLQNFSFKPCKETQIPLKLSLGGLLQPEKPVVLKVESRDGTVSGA
Use % as the unit, but write only the number.

molecule O=C(Nc1ccccc1)c1cccc(NCc2nc(-c3ccncc3)n[nH]2)c1 , inhibition at 10 µM observed: 94

molecule COCCn1c(CNc2cccc(C(=O)NCc3ccccc3)c2)nnc1-c1ccncc1 , inhibition at 10 µM observed: 57

molecule Clc1ccc(NCCc2nc(-c3ccncc3)n[nH]2)cc1 , inhibition at 10 µM observed: 93

molecule Clc1ccc(CNc2nc(-c3ccncc3)n[nH]2)cc1 , inhibition at 10 µM observed: 96

molecule O=C(NCc1ccccc1)c1cccc(NCc2nc(-c3ccncc3)no2)c1 , inhibition at 10 µM observed: 86

molecule O=C(NCc1ccccc1Cl)c1cccc(NCc2nnc(-c3ccncc3)[nH]2)c1 , inhibition at 10 µM observed: 97

molecule Cn1c(CNc2cccc(C(=O)NCc3c(F)cccc3F)c2)nnc1-c1ccncn1 , inhibition at 10 µM observed: 24

molecule COc1ccccc1NCc1nc(-c2ccncc2)n[nH]1 , inhibition at 10 µM observed: 93

molecule CNC(=O)c1cccc(NCc2nc(-c3ccncc3)n[nH]2)c1 , inhibition at 10 µM observed: 66

molecule CNc1cc(-c2nnc(CNc3cccc(C(=O)NCc4c(F)cccc4F)c3)n2C)ccn1 , inhibition at 10 µM observed: 29

molecule CC(=O)Nc1cccc(NCc2nc(-c3ccncc3)n[nH]2)c1 , inhibition at 10 µM observed: 77

molecule NS(=O)(=O)c1ccc(NCc2nc(-c3ccncc3)n[nH]2)cc1 , inhibition at 10 µM observed: 20

molecule O=C(Cc1cccc(NCc2nc(-c3ccncc3)n[nH]2)c1)NCc1ccccc1 , inhibition at 10 µM observed: 92

molecule CC(C)n1c(CNc2cccc(C(=O)NCc3ccccc3)c2)nnc1-c1ccncc1 , inhibition at 10 µM observed: 50

molecule O=C(NCCCc1ccccc1)c1cccc(NCc2nc(-c3ccncc3)n[nH]2)c1 , inhibition at 10 µM observed: 94

molecule O=C(NCc1c(F)cccc1F)c1cccc(NCc2nnc3n2CCOc2cnccc2-3)c1 , inhibition at 10 µM observed: 49

molecule NC(=O)OCc1cnccc1-c1n[nH]c(CNc2cccc(C(=O)NCc3ccccc3)c2)n1 , inhibition at 10 µM observed: 63

molecule c1ccc(COc2cccc(NCc3nc(-c4ccncc4)n[nH]3)c2)cc1 , inhibition at 10 µM observed: 97

molecule COc1ccc(CNC(=O)c2cccc(NCc3nnc(-c4ccncc4)[nH]3)c2)cc1 , inhibition at 10 µM observed: 91

molecule Cn1c(CNc2cccc(C(=O)NCc3c(F)cccc3F)c2)nnc1-c1ccnc(NCCc2ccccc2)c1 , inhibition at 10 µM observed: 69

molecule Cn1c(CNc2cccc(C(=O)NCc3c(F)cccc3F)c2)nnc1-c1ccnc(NCCCc2ccccc2)c1 , inhibition at 10 µM observed: 64
